System: Calu-3
Assay: cell viability relative to DMSO; higher = less toxic
Details: 72 h; 100 nM
reported endpoint: cell viability (%)

In [3]: df
Out[3]:
                                   molecule  study_target  unit_symbol  measured_number
0  CC(C)n1cnc2c(C(=O)N[C@H]3CN4CCC3CC4)cc(Cl)cc21        Calu-3            %             84.9
1          OC(CCN1CCCCC1)(c1ccccc1)c1ccccc1        Calu-3            %             91.7
2  CCOc1ccc(-c2ccc(Cn3c(CC(C)(C)C(=O)O)c(SC(C)(C)C)c4cc(OCc5ccc(C)cn5)ccc43)cc2)cn1        Calu-3            %              111
3  CCCCCCCCCCC(CO)CCCCCCCC (stereo not drawn)        Calu-3            %             98.2
4  Oc1ccc2c3c1O[C@H]1c4c(c5ccccc5n4Cc4ccccc4)C[C@@]4(O)[C@@H](C2)N(CC2CC2)CC[C@]314        Calu-3            %              106
5          Nc1nc(N)c2nc(-c3ccccc3)c(N)nc2n1        Calu-3            %             93.6
6  OC[C@H]1O[C@@H](c2ccc(F)c(Cc3cc4ccccc4s3)c2)[C@H](O)[C@@H](O)[C@@H]1O        Calu-3            %               98
7  CCOc1ccccc1N/N=C1/C(=O)N(c2nc(-c3ccccc3)cs2)N=C1C        Calu-3            %             83.7
